Cited source: paper PMC7351026

- assay notes: PFAS levels in urine samples of airport employees, specific-gravity adjusted (LC/MS/MS)
- Type: in vivo, human
- run parameters: 3rd sampling (November, 2018), count 16
readout kind: Specific gravity adjusted urinary level, 75 percentile (ng/mL)
Please respond with the number in ng/mL and leave the unit unwritten.

Field: example entries. Status: answers known.
O=C(O)C(F)(F)C(F)(F)C(F)(F)C(F)(F)C(F)(F)C(F)(F)C(F)(F)F [PFOA, perfluorooctanoic acid] = 0.04
O=S(=O)(O)C(F)(F)C(F)(F)C(F)(F)C(F)(F)C(F)(F)C(F)(F)F [PFHxS, perfluorohexane sulfonic acid] = 0.13
O=S(=O)(O)C(F)(F)C(F)(F)C(F)(F)C(F)(F)C(F)(F)F [PFPeS, perfluoropentane sulfonic acid] = 0.09
O=C(O)C(F)(F)C(F)(F)C(F)(F)C(F)(F)C(F)(F)C(F)(F)F [PFHpA, perfluoroheptanoic acid] = 0.03

Kindly review the next molecule as well.
# get_value(readout='Specific gravity adjusted urinary level, 75 percentile', item= O=S(=O)(O)C(F)(F)C(F)(F)C(F)(F)C(F)(F)C(F)(F)C(F)(F)C(F)(F)C(F)(F)F [L-PFOS, linear perfluorooctane sulfonic acid] )
0.02

----------
- assay notes: Individual serum elimination rate and half-life (linear regression per employee)
- run parameters: individual estimate, subject 9, 5 samples
Kindly apply the following: t if Elimination rate is less than 0.4 yearly, f in every other case.

O=S(=O)(O)C(F)(F)C(F)(F)C(F)(F)C(F)(F)C(F)(F)C(F)(F)C(F)(F)F = t

Lab note: confirm whether the reported Elimination rate for this compound is below 0.4 yearly, equality not counting. compound: O=S(=O)(O)C(F)(C(F)(F)F)C(F)(F)C(F)(F)C(F)(F)C(F)(F)C(F)(F)C(F)(F)F (stereo not drawn) [1m-PFOS, perfluoro-1-methylheptanesulfonate]
t

Also O=C(O)C(F)(F)C(F)(F)C(F)(F)C(F)(F)C(F)(F)C(F)(F)F ?
f

Further, for O=S(=O)(O)C(F)(F)C(F)(F)C(F)(F)C(F)(F)C(F)(F)F ?
f

Here is the next compound: O=C(O)C(F)(F)C(F)(F)C(F)(F)C(F)(F)C(F)(F)F
t

Try the compound O=S(=O)(O)C(F)(F)C(F)(F)C(F)(F)C(F)(F)F
f

Moving on to O=S(=O)(O)C(F)(F)C(F)(F)C(F)(F)C(F)(F)C(F)(F)C(F)(F)F
t

----------
- assay notes: Individual serum elimination rate and half-life (linear regression per employee)
- run parameters: human, serum, oral, HL (half-life), individual estimate, subject 16, 5 samples
Quick list: half-life per entry.
Return type: number; implicit unit days.

# annotated cases, reported half-life shown
O=S(=O)(O)C(F)(F)C(F)(F)C(F)(F)C(F)(F)C(F)(F)C(F)(F)F [PFHxS, perfluorohexane sulfonic acid] = 6940
O=C(O)C(F)(F)C(F)(F)C(F)(F)C(F)(F)C(F)(F)C(F)(F)C(F)(F)F [PFOA, perfluorooctanoic acid] = 986

Next compound, please.
Which half-life is listed for O=C(O)C(F)(F)C(F)(F)C(F)(F)C(F)(F)C(F)(F)C(F)(F)F [PFHpA, perfluoroheptanoic acid] ?
256

----------
- assay notes: Individual serum elimination rate and half-life (linear regression per employee)
- run parameters: human, serum, oral, HL (half-life), individual estimate, subject 5, 5 samples
Some compounds, each annotated with its measured half-life.
Could you give me the number in days? Just the number is fine.

Which half-life value belongs to O=C(O)C(F)(F)C(F)(F)C(F)(F)C(F)(F)C(F)(F)C(F)(F)F [PFHpA, perfluoroheptanoic acid] ?
183

Would you mind doing O=S(=O)(O)C(F)(F)C(F)(F)C(F)(F)C(F)(F)C(F)(F)C(F)(F)F [PFHxS, perfluorohexane sulfonic acid] as well?
1720

Moving on to O=C(O)C(F)(F)C(F)(F)C(F)(F)C(F)(F)C(F)(F)C(F)(F)C(F)(F)F [PFOA, perfluorooctanoic acid]
804

----------
- assay notes: Individual serum elimination rate and half-life (linear regression per employee)
- run parameters: individual estimate, subject 1, 5 samples
readout kind: Elimination rate
A complete answer gives the number and then names the unit.

These solved cases illustrate the format of a correct answer.
O=C(O)C(F)(F)C(F)(F)C(F)(F)C(F)(F)C(F)(F)C(F)(F)C(F)(F)F = 0.3 yearly
O=S(=O)(O)C(F)(C(F)(F)F)C(F)(F)C(F)(F)C(F)(F)C(F)(F)C(F)(F)C(F)(F)F (stereo not shown) [1m-PFOS, perfluoro-1-methylheptanesulfonate] = 0.3 yearly
O=C(O)C(F)(F)C(F)(F)C(F)(F)C(F)(F)C(F)(F)F = 0.2 yearly

Kindly consider the entry below.
Recorded Elimination rate for O=S(=O)(O)C(F)(F)C(F)(F)C(F)(F)C(F)(F)C(F)(F)F , please?
0.7 yearly

----------
- assay notes: PFAS levels in serum samples of airport employees (LC/MS/MS)
- run parameters: second to fifth samplings, 17 airport employees
readout kind: Serum level, median (range)

Sample answers from the record:
O=S(=O)(O)C(F)(F)C(F)(F)C(F)(F)C(F)(F)C(F)(F)C(F)(F)F = 118 (17–399) ng/mL
O=S(=O)(O)C(F)(F)C(F)(F)C(F)(F)C(F)(F)C(F)(F)F = 6.5 (1.8–14) ng/mL
O=C(O)C(F)(F)C(F)(F)C(F)(F)C(F)(F)C(F)(F)C(F)(F)C(F)(F)F = 10 (4.1–28) ng/mL

What measured Serum level, median (range) goes with O=S(=O)(O)C(F)(F)C(F)(F)C(F)(F)C(F)(F)C(F)(F)C(F)(F)C(F)(F)C(F)(F)F ?
10 (4.1–24) ng/mL

----------
We begin with a simple list: items and their reported Serum PFAS level, Max.
- assay notes: PFAS levels in serum samples of airport employees (LC/MS/MS)
- run parameters: 1st sampling (September 2018), count 17
Kindly provide the number alone.

Worked cases, answers included:
O=S(=O)(O)C(F)(F)C(F)(F)C(F)(F)C(F)(F)C(F)(F)F [PFPeS, perfluoropentane sulfonic acid] = 17
O=S(=O)(O)C(F)(F)C(F)(F)C(F)(F)C(F)(F)C(F)(F)C(F)(F)C(F)(F)F [PFHpS, perfluoroheptane sulfonic acid] = 6.2

# lookup: Serum PFAS level, Max of O=C(O)C(F)(F)C(F)(F)C(F)(F)C(F)(F)C(F)(F)C(F)(F)C(F)(F)F [PFOA, perfluorooctanoic acid]
31

----------
- assay notes: PFAS levels in serum samples of airport employees (LC/MS/MS)
- run parameters: 4th sampling (December 2018), count 16
readout kind: Serum PFAS level, 25 percentile

Here is how some compounds turned out for Serum PFAS level, 25 percentile.
O=S(=O)(O)C(F)(C(F)(F)F)C(F)(F)C(F)(F)C(F)(F)C(F)(F)C(F)(F)C(F)(F)F (stereo not drawn) [1m-PFOS, perfluoro-1-methylheptanesulfonate] = 0.47
O=C(O)C(F)(F)C(F)(F)C(F)(F)C(F)(F)C(F)(F)F = 0.22
O=C(O)C(F)(F)C(F)(F)C(F)(F)C(F)(F)C(F)(F)C(F)(F)C(F)(F)F = 7.5
O=S(=O)(O)C(F)(F)C(F)(F)C(F)(F)C(F)(F)F = < LOD
O=S(=O)(O)C(F)(F)C(F)(F)C(F)(F)C(F)(F)C(F)(F)F = 4.0
O=C(O)C(F)(F)C(F)(F)C(F)(F)C(F)(F)C(F)(F)C(F)(F)F = 0.09

I'd like to know its Serum PFAS level, 25 percentile. The compound in question is O=S(=O)(O)C(F)(F)C(F)(F)C(F)(F)C(F)(F)C(F)(F)C(F)(F)C(F)(F)F
0.93

Also O=S(=O)(O)C(F)(F)C(F)(F)C(F)(F)C(F)(F)C(F)(F)C(F)(F)C(F)(F)C(F)(F)F , if possible.
7.4

What do we get for O=S(=O)(O)C(F)(F)C(F)(F)C(F)(F)C(F)(F)C(F)(F)C(F)(F)F ?
50

----------
Listed below: log10 of Elimination rate values for each entry.
- assay notes: Individual serum elimination rate and half-life (linear regression per employee)
- run parameters: individual estimate, subject 11, 5 samples
Log scale reminder: Elimination rate in yearly, then log10 taken.

These solved cases illustrate the format of a correct answer.
O=C(O)C(F)(F)C(F)(F)C(F)(F)C(F)(F)C(F)(F)C(F)(F)C(F)(F)F [PFOA, perfluorooctanoic acid] = -0.30
O=S(=O)(O)C(F)(F)C(F)(F)C(F)(F)C(F)(F)F [PFBS, perfluorobutane sulfonic acid] = 0.85

I would be grateful if you could share the reported log10 of Elimination rate for O=S(=O)(O)C(F)(F)C(F)(F)C(F)(F)C(F)(F)C(F)(F)C(F)(F)C(F)(F)F [PFHpS, perfluoroheptane sulfonic acid] .
0.23

Please answer likewise for O=S(=O)(O)C(F)(F)C(F)(F)C(F)(F)C(F)(F)C(F)(F)F [PFPeS, perfluoropentane sulfonic acid]
0.30

Same for O=S(=O)(O)C(F)(F)C(F)(F)C(F)(F)C(F)(F)C(F)(F)C(F)(F)F [PFHxS, perfluorohexane sulfonic acid]
-0.70

Would you kindly repeat that for O=S(=O)(O)C(F)(F)C(F)(F)C(F)(F)C(F)(F)C(F)(F)C(F)(F)C(F)(F)C(F)(F)F [L-PFOS, linear perfluorooctane sulfonic acid] ?
-1.00
